target: Phosphotyrosine-protein phosphatase PTPB (Mycobacterium tuberculosis); test: Inhibition of recombinant Mycobacterium tuberculosis H37Rv MptpB using pNPP as substrate incubated for 10 mins and measured by spectrophotometric method
Sequence (P96830 whole entry): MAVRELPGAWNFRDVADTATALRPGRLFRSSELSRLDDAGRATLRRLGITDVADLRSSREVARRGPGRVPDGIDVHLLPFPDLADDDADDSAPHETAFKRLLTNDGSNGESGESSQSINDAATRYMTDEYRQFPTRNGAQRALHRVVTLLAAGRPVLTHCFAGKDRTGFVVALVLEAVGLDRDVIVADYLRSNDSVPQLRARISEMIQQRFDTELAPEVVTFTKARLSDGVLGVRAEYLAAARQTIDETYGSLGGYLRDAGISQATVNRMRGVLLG
Kindly state IC50 for each of the entries shown.
One number for each entry, in µM.

Solved cases (2 shown):
| COMPOUND | TARGET_ENTITY | PROPERTY_MEASURED | MEASURED_RESULT |
| --- | --- | --- | --- |
| CN1C(=O)C(=Cc2cc(-c3cc(Cl)c(O)c(Cl)c3)ccc2OCc2ccc(Cl)cc2)C(=O)N(C)C1=S | Phosphotyrosine-protein phosphatase PTPB (Mycobacterium tuberculosis) | IC50 | 14.1 |
| O=C1NC(=S)NC(=O)C1=Cc1ccc(OCc2ccc(Cl)cc2)cc1-c1cc(Cl)c(O)c(Cl)c1 | Phosphotyrosine-protein phosphatase PTPB (Mycobacterium tuberculosis) | IC50 | 3.62 |

Qu. Please give measured IC50 of the following entry: "C/C=C(\C)[C@@H]1C(C)=C[C@@H]2CC(C)=CC[C@H]2[C@@H]1/C=C/C=C(\C)[C@@H](O)[C@@H](C)C(=O)O"
Ans. 1.05

----------
Target: Low molecular weight protein-tyrosine phosphatase A (Mycobacterium tuberculosis)
Sequence (P9WIA1 whole entry): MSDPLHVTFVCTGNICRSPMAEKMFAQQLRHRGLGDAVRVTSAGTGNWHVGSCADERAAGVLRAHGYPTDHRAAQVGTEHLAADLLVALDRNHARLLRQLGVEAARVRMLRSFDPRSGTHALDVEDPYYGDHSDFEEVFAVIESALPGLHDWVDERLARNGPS
Test: Inhibition of recombinant Mycobacterium tuberculosis H37Rv MptpA using pNPP as substrate incubated for 10 mins and measured by spectrophotometric method
Kindly state pIC50 for each of the entries shown.
Give bare numbers, as −log10 of the molar value.

| COMPOUND | pIC50 |
| --- | --- |
| O=C1NC(=S)NC(=O)C1=Cc1cc(-c2cc(Cl)c(O)c(Cl)c2)ccc1OCc1ccc(Cl)cc1 | 5.05 |

In the following, a different molecule is considered.
Qu. Please give measured pIC50 of the following entry: "O=C1NC(=S)NC(=O)C1=Cc1cc(-c2ccc(C(F)(F)F)cc2)ccc1OCc1ccc(Cl)cc1"
Ans. 4.70

----------
target: Tyrosine-protein phosphatase non-receptor type 1 (Homo sapiens); assay: Inhibition of recombinant human PTP1B using pNPP as substrate preincubated for 5 mins followed by substrate addition assessed as reduction in p-nitrophenol release
Sequence (P18031 whole entry): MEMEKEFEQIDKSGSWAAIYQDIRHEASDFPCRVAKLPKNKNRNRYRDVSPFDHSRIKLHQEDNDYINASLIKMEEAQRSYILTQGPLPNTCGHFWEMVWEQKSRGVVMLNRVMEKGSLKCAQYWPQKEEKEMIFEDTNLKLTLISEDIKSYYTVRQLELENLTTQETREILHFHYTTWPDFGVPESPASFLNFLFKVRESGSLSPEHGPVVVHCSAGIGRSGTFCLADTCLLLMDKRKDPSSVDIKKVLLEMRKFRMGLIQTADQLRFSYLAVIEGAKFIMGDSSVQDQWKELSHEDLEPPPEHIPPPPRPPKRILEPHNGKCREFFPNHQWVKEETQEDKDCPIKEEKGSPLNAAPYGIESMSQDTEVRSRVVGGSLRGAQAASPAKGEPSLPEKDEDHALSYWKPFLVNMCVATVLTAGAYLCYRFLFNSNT
pIC50: −log10 of the molar value.
Use 5 as the dividing line for pIC50, with the line itself on the Y side and lower values as N.

Completed entries (count: 5):
| COMPOUND | ASSIGNED_CLASS |
| --- | --- |
| O=C1NC(=S)NC(=O)C1=Cc1cc(-c2cc(Cl)c(O)c(Cl)c2)ccc1OCc1cc(F)cc(F)c1 | Y |
| O=C1NC(=S)NC(=O)C1=Cc1ccc(OCc2ccc(Cl)cc2)c(-c2cc(Cl)c(O)c(Cl)c2)c1 | Y |
| O=C1NC(=S)NC(=O)C1=Cc1cc(-c2ccc(C(F)(F)F)cc2)ccc1OCc1ccc(Cl)cc1 | Y |
| O=C1NC(=S)NC(=O)C1=Cc1ccc(OCc2ccc(Cl)cc2)cc1-c1cc(Cl)c(O)c(Cl)c1 | N |
| O=C1NC(=S)NC(=O)C1=Cc1cc(-c2cc(Cl)c(O)c(Cl)c2)ccc1OCc1ccccc1 | N |

Then this compound:
Qu. Could you tell me if the measured pIC50 of "O=C1NC(=S)NC(=O)C1=Cc1cc(-c2cc(Cl)c(O)c(Cl)c2)ccc1OCc1ccc(Cl)cc1" reaches 5 or more?
Ans. Y
